Target: mitochondrial calcium/sodium antiporter (Rattus norvegicus)
Assay: Inhibition of mitochondrial calcium/sodium antiporter activity (NaCl-induced mitochondrial calcium efflux, calcium green 5N fluorescence)
Type: cell-based
Conditions: IC50 ≦ 10 μM, Table 2, preferred compounds; digitonin-permeabilized INS-1 cells, 20 mM NaCl
pIC50: −log10 of the molar value.
experimentalReadout: pIC50

- O=[N+]([O-])c1ccccc1C(CNCCc1ccccc1)c1cccc(Cl)c1 (stereo not shown) [Compound 27b]: ≥ 5.00

---

Biological target: mitochondrial calcium/sodium antiporter (Rattus norvegicus, UniProt Q6AXS0)
Sequence (Q6AXS0 whole entry): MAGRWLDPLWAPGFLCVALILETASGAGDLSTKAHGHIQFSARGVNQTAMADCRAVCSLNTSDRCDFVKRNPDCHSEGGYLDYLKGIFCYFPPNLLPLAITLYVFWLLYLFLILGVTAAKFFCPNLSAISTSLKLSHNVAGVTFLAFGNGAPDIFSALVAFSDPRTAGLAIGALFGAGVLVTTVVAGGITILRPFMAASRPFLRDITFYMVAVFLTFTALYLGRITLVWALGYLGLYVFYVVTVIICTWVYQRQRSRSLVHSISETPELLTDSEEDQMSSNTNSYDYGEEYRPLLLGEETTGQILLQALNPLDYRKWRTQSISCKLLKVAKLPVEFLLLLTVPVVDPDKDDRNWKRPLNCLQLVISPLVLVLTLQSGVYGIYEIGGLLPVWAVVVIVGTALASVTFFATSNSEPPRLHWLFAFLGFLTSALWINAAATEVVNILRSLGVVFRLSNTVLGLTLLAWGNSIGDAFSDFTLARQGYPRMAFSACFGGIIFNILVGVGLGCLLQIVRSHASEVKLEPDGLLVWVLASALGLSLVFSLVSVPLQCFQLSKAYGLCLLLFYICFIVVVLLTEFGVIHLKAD
Test: Inhibition of mitochondrial calcium/sodium antiporter activity (NaCl-induced mitochondrial calcium efflux, calcium green 5N fluorescence)
Format: cell-based
Settings: Table 2, preferred compounds; digitonin-permeabilized INS-1 cells, 20 mM NaCl; read-out: IC50 ≦ 10 μM
Procedure: INS-1 rat insulinoma cells (see Example 16) were harvested by trypsinization, washed and resuspended at 10×10^6 cells/ml in assay buffer (250 mM sucrose, 10 mM HEPES, 2.5 mM K2HPO4, 5 mM succinate, pH 7.4) containing 0.007% digitonin, 60 μM CaCl2 and 0.05 μM calcium green 5N (Molecular Probes, Inc., Eugene, Oreg.). After a five-minute calcium loading incubation, ruthenium red (1 μM; Sigma, St. Louis, Mo.) was added to block further calcium uptake by mitochondria. […]
pIC50: −log10 of the molar value.
experimentalReadout: pIC50

* CCCCCCNC(=O)CSC(c1cc(Cl)ccc1N)c1ccccc1Cl (stereo not drawn) [Compound 13l] | ≥ 5.00
* COc1cc(C(=O)NCCSC(c2cc(Cl)ccc2N)C2CCCCC2)cc(OC)c1O (stereo not drawn) [Compound 16p] | ≥ 5.00
* CCOC(=O)C(c1ccccc1C)c1ccccc1[N+](=O)[O-] (stereo not drawn) [Compound 25b] | ≥ 5.00
* COC(=O)CSCC(c1ccccc1)c1cc(Cl)ccc1N (stereo not drawn) [Compound 20d] | ≥ 5.00
* COC(=O)CSC(c1ccccc1C)c1cc(Cl)ccc1N (stereo not drawn) [Compound 11aa] | ≥ 5.00
* COC(=O)CSC(c1nc2ccccc2s1)c1cc(Cl)ccc1N (stereo not drawn) [Compound 11f] | ≥ 5.00
* Nc1ccc(Cl)cc1C(SCC(=O)NCCc1cc(I)c(O)c(I)c1)c1ccccc1Cl (stereo not drawn) [Compound 13u] | ≥ 5.00
* COC(=O)CSC(c1nccs1)c1cc(Cl)ccc1N (stereo not drawn) [Compound 11u] | ≥ 5.00
* NCCOCCOCCNC(=O)CSC(c1cc(Cl)ccc1N)c1ccccc1Cl (stereo not drawn) [Compound 13v] | ≥ 5.00
